molecular target: Leucine aminopeptidase (Plasmodium falciparum (isolate 3D7)) (UniProt Q8IL11); experiment: P. falciparum M17LAP inhibitors, primary screen, biochemical, fluorogenic H-Leu-NHMec substrate, 1536-well (AID 1619); details: recombinant M17LAP, H-Leu-NHMec fluorogenic kinetic assay; at 30 µM; active compounds read high;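 note: plate controls were full reaction with DMSO carrier for no effect and no enzyme background for full effect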
Sequence (Q8IL11 whole entry, looked up): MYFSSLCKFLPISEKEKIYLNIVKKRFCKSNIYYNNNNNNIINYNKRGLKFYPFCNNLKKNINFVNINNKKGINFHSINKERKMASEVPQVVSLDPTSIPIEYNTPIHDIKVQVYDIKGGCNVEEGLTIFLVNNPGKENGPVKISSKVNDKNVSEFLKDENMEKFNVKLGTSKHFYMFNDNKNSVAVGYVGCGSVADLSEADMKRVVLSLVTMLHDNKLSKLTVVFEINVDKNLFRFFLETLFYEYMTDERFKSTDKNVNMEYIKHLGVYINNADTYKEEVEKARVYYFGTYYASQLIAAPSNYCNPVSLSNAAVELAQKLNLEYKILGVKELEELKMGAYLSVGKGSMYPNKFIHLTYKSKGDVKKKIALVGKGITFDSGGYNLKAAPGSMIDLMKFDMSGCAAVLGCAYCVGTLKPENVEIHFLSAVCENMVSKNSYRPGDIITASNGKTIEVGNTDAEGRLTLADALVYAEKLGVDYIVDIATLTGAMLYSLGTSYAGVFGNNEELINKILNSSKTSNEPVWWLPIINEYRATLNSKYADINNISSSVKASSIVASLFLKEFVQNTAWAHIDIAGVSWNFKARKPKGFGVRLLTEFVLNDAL
The campaign covered roughly 220,000 compounds. About 830 (0.38%) were called active. Only a sample is shown. Entries with a potency or affinity are not part of this list.
// reported inhibition for each item listed
Numbers only; they are read as %.

Observe how each entry below is paired with its result.
INSERT INTO results (compound, system_under_test, measurement_kind, units_text, result_value) VALUES
  ('O=C(Nc1nc(-c2ccccc2)cs1)C1c2ccccc2Oc2ccccc21', 'Leucine aminopeptidase (Plasmodium falciparum (isolate 3D7)) (UniProt Q8IL11)', 'inhibition', '%', 1.51),
  ('COc1ccc(OC)c(/C=N/NC(=O)CC2C(=O)NN=C2C)c1 (stereo not given)', 'Leucine aminopeptidase (Plasmodium falciparum (isolate 3D7)) (UniProt Q8IL11)', 'inhibition', '%', -164),
  ('NC(=O)c1c(-c2ccc(Cl)cc2Cl)csc1NC(=O)Cc1ccccc1', 'Leucine aminopeptidase (Plasmodium falciparum (isolate 3D7)) (UniProt Q8IL11)', 'inhibition', '%', 6.81);

[in] Please look at this compound and report its inhibition: COc1ccccc1CNC(=O)CN1C(=O)C(C)N(c2ccc(C)cc2)C1=O (stereo not given)
[out] -0.45

[in] Please look at this compound and report its inhibition: CC(=O)c1ccc(NC(=O)c2ccc(S(=O)(=O)c3ccccc3)cc2)cc1
[out] -3.53

[in] Please look at this compound and report its inhibition: CSCCC(NC(=O)c1ccc([N+](=O)[O-])cc1Cl)C(=O)OCC(=O)N(C)C (stereo not given)
[out] -3.36

[in] Please look at this compound and report its inhibition: CCOc1cccc(/C=N/NC(=O)CC2C(=O)NN=C2C)c1O (stereo not given)
[out] 3.72
